- System: ATP-dependent translocase ABCB1 (Homo sapiens, UniProt P08183)
- Sequence (P08183 whole entry): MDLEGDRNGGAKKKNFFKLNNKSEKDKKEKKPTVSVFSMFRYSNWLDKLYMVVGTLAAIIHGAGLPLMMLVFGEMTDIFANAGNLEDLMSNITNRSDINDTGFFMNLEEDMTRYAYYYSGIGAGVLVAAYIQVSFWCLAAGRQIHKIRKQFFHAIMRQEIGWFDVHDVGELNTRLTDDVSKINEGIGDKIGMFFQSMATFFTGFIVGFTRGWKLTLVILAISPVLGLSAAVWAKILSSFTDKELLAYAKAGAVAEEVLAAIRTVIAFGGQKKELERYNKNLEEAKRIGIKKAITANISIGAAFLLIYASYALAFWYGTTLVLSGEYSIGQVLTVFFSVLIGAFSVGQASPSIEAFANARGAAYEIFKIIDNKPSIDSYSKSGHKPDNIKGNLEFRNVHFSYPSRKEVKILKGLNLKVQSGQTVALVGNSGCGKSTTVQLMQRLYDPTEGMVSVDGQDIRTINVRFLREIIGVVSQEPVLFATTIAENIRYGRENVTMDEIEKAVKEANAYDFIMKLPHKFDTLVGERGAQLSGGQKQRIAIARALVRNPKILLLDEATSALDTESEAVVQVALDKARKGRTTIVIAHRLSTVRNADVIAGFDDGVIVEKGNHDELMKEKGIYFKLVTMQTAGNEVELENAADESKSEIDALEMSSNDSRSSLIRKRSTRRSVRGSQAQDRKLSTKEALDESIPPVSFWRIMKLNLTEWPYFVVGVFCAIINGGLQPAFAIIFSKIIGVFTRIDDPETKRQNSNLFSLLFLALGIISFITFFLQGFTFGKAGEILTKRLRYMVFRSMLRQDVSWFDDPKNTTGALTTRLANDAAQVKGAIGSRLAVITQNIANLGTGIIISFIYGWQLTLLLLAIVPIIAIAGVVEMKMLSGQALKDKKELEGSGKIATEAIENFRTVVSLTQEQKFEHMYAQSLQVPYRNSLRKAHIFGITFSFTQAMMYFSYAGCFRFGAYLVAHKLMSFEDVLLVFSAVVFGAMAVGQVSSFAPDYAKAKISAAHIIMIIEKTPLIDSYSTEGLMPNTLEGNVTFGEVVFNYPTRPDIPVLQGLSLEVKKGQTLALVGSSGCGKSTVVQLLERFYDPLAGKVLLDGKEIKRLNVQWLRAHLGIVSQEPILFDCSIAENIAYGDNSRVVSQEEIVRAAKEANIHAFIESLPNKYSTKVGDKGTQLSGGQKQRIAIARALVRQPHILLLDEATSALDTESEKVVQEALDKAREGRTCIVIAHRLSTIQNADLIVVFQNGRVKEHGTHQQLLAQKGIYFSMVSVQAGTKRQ
- Test Summary: TP_TRANSPORTER: inhibition of Saquinavir transepithelial transport (basal to apical) in Caco-2 cells
- Type: functional, cell-based
Test Readout: Activity

>>> readout_value("O=C1C[C@@H](c2ccc(O)cc2)Oc2cc(O)cc(O)c21 [NARINGENIN]")
"inhibitor [+]"
>>> readout_value("C[C@@H]1O[C@@H](O[C@H]2[C@H](Oc3cc(O)c4c(c3)O[C@H](c3ccc(O)cc3)CC4=O)O[C@H](CO)[C@@H](O)[C@@H]2O)[C@H](O)[C@H](O)[C@H]1O [NARINGIN]")
"inhibitor [+]"
>>> readout_value("C/C(=C\\COc1c2ccoc2cc2oc(=O)ccc12)CC[C@@H](O)C(C)(C)O")
"is not an inhibitor [-]"
>>> readout_value("CC(C)=CCC/C(C)=C/COc1c2ccoc2cc2oc(=O)ccc12 [BERGAMOTTIN]")
"is not an inhibitor [-]"
